measurementDescription: Pharmacokinetic studies in rat (i.v.)
Type: in vivo
experimentalConditions: male, Sprague-Dawley, rat, plasma, iv, 1.14 mg/kg, I-13 1.14 mg/kg i.v., rat plasma, 0.25 h, Mean ± SD; read-out: Plasma concentration
assayEndpoint: concentration at 0.25 h (ng/mL)
Your answer is read as ng/mL, so omit the unit and give the number.

IN: Report concentration at 0.25 h, nothing else, for this compound: CCN(C)CCc1c[nH]c2ccc(SC)cc12 [Compound I-13]
OUT: 81.7

* * *

measurementDescription: Rat liver microsomes stability
Format: in vitro ADME
experimentalConditions: male, rat, pooled liver microsomes, rat liver microsomes, 2 μM compound, 0.5 mg/mL; read-out: CLint (μL/min/mg protein)
assayEndpoint: microsomal CLint at 2 μM (µL/min/mg)
Your answer is read as µL/min/mg, so omit the unit and give the number.

Known results for molecules:
COc1ccc2[nH]cc(CCN(C)CCOC(F)F)c2c1
143
O=C(O)Cc1ccccc1Nc1c(Cl)cccc1Cl
91.9

IN: Report microsomal CLint at 2 μM, nothing else, for this molecule: COc1ccc2[nH]cc(CCN3CC[C@@H](OC(F)F)C3)c2c1 [(R) I-67]
OUT: 132

IN: Report microsomal CLint at 2 μM, nothing else, for this molecule: COc1ccc2[nH]cc(CCN3CC[C@@H](OC)C3)c2c1 [(R) I-66]
OUT: 77.7

IN: Report microsomal CLint at 2 μM, nothing else, for this molecule: CN(C)CCc1c[nH]c2ccc(OCCOC(F)F)cc12
OUT: 187
